Below is a list of entries, each paired with its recorded GI50 value.
System: OVCAR-4
Assay text: NCI tumour cell line growth inhibition, 48 h
Calls of active or inactive are those of the source. No stated cut-off is given here; in the data, active = GI50 up to about 1.1 µM and inactive = higher.
Attribute measured: GI50

{"Compound": "C[C@H](CCC(=O)O)[C@H]1CC[C@H]2[C@@H]3[C@H](O)[C@H](O)[C@@H]4C[C@H](O)CC[C@]4(C)[C@H]3CC[C@]12C", "Attribute measured": "GI50", "Result": "> 100 µM (inactive)"}
{"Compound": "CC(=O)[O-].Cc1ncc(CO)c(/C=N/NC(N)=S)c1[O-].[Zn+2]", "Attribute measured": "GI50", "Result": "> 100 µM (inactive)"}
{"Compound": "COc1ccc(C(=O)c2c(-c3ccccc3NC(=O)C(F)(F)F)[nH]c3ccccc23)cc1", "Attribute measured": "GI50", "Result": "4.59 µM (inactive)"}
{"Compound": "CCc1cc2c(cc1C(=O)CCC(=O)O)CC1(C2)Cc2cc(CC)c(C(=O)CCC(=O)O)cc2C1", "Attribute measured": "GI50", "Result": "> 100 µM (inactive)"}
{"Compound": "c1ccc(C2=NOC3COc4ccccc4OCC23)cc1 (centres undefined)", "Attribute measured": "GI50", "Result": "> 100 µM (inactive)"}
{"Compound": "COc1ccc(OC)c2[nH]c(Sc3c([N+](=O)[O-])ncn3C)nc12", "Attribute measured": "GI50", "Result": "22.9 µM (inactive)"}
{"Compound": "Nc1nc2c(c(-c3cccc(Cl)c3)n1)COC/C2=C\\c1cccc(Cl)c1", "Attribute measured": "GI50", "Result": "> 100 µM (inactive)"}
{"Compound": "O=C(Cn1cc(-c2ccccc2)nn1)NC1CCCC1", "Attribute measured": "GI50", "Result": "> 100 µM (inactive)"}
{"Compound": "C=CC[C@@H]1C(=O)[C@@]2(O[Si](C(C)C)(C(C)C)C(C)C)CC[C@@H]1C[C@H]2NC(=O)OCC(Cl)(Cl)Cl", "Attribute measured": "GI50", "Result": "> 100 µM (inactive)"}

###

System: Malme-3M
Assay text: NCI tumour cell line growth inhibition, 48 h
The source made the active and inactive calls. No stated cut-off is given here; in the data, active = GI50 up to about 1.1 µM and inactive = higher.
Labels: Y (active), N (inactive)

{"Molecule": "C[C@H]1CC[C@]2(NC1)O[C@H]1C[C@H]3[C@@H]4CC[C@H]5C[C@@H](O[C@@H]6O[C@H](CO)[C@H](O[C@@H]7O[C@H](CO)[C@@H](O)[C@H](O[C@@H]8OC[C@@H](O)[C@H](O)[C@H]8O)[C@H]7O[C@@H]7O[C@H](CO)[C@@H](O)[C@H](O)[C@H]7O)[C@H](O)[C@H]6O)CC[C@]5(C)[C@H]4CC[C@]3(C)[C@H]1[C@@H]2C", "Assigned class": "Y"}
{"Molecule": "COc1ccc(NC(=O)C(C)Oc2ccc(OCC3CCCCC3)cc2)cc1 (configuration not stated)", "Assigned class": "N"}
{"Molecule": "CCC(CCCC[C@H]1CC[C@@H]2CC(=O)C[C@H]12)OC (some centres not stated)", "Assigned class": "N"}
{"Molecule": "CC1CC[C@@]2(OC1)O[C@H]1[C@H](O)[C@H]3[C@@H]4CC[C@H]5C[C@@H](OC6OC(CO)C(OC7OC(CO)C(O)C(OC8OCC(O)C(O)C8O)C7OC7OC(CO)C(O)C(O)C7OC7OC(CO)C(O)C(O)C7O)C(O)C6O)[C@H](O)C[C@]5(C)[C@H]4CC[C@]3(C)[C@H]1[C@@H]2C (some centres not stated)", "Assigned class": "N"}
{"Molecule": "Oc1ccc2ccccc2c1-c1c(Nc2ccccc2)ccc2ccccc12", "Assigned class": "N"}
{"Molecule": "COc1ccc(C(=O)N2CCN(c3ccc4c(c3)OCC(=O)N4)CC2)cc1", "Assigned class": "N"}
{"Molecule": "Cc1cccc(Cl)c1NC(N)=S", "Assigned class": "N"}
{"Molecule": "C=CCNC(=O)N(CCCCC(NC(C)=O)C(=O)NCc1ccccc1)Cc1ccccc1 (configuration not stated)", "Assigned class": "N"}
{"Molecule": "O=C1N[C@@H]2CCCC[C@@H]2C12CCCCC2", "Assigned class": "N"}
{"Molecule": "Cc1cc(N(CCC#N)CCC#N)ccc1/N=N/c1ccc([N+](=O)[O-])cc1", "Assigned class": "N"}
{"Molecule": "CC1(C)CC(C)(C)CC(O)(C2(O)CC(C)(C)CC(C)(C)C2)C1", "Assigned class": "N"}
{"Molecule": "COc1cc2c(cc1OC)C1Cc3sccc3CN1CC2 (configuration not stated)", "Assigned class": "N"}
{"Molecule": "COc1cc(C(=O)CC2(O)C(=O)Nc3c(Cl)cc(Cl)cc32)ccc1O (configuration not stated)", "Assigned class": "N"}
{"Molecule": "O=C(O)c1ccc(Nc2nc3ccccc3nc2C(=O)O)cc1", "Assigned class": "N"}
{"Molecule": "COc1cc(/C=C(/C#N)C(N)=O)ccc1O", "Assigned class": "N"}
{"Molecule": "CCn1c(-c2ccc(/N=N/Nc3ccc(-c4n[nH]c(=S)n4CC)cc3)cc2)n[nH]c1=S", "Assigned class": "N"}
{"Molecule": "C=CC1(C)/C(=N\\O)C(C)(CC)C(=O)N1O (configuration not stated)", "Assigned class": "N"}
